Cited source: ChEMBL document CHEMBL5096227

protocol.description: Plasma clearance in Wistar Han rat
Assay type: ADME

smiles.str | clearance / mL/min/kg
CCOc1cccnc1Oc1cncc(-c2ncc(C(=O)NC(C)(C)CO)cn2)c1 | 57

----------
tested.on: Diacylglycerol O-acyltransferase 2 (Homo sapiens)
Sequence (Q96PD7 whole entry): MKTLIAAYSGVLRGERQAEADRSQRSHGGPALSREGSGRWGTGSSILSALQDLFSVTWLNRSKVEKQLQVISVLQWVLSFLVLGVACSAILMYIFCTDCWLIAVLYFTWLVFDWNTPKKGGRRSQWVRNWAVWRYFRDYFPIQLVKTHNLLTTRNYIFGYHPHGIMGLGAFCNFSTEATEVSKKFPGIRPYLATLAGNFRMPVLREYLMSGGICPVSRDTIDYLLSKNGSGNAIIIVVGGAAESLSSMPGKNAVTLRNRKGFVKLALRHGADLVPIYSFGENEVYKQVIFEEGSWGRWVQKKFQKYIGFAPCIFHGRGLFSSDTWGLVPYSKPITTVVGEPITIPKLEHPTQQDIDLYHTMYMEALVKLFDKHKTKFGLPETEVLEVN
protocol.description: Inhibition of human DGAT2 expressed in Sf9 insect cell membrane using [1-14C]decanoyl-CoA and 1,2-didecanoyl-sn-glycerol as substrates assessed as incorporation of [1-14C]decanoyl into triacylglycerol preincubated for 120 mins followed by substrate addition and measured after 40 mins by scintillation counting method
Type: cell membranes
pIC50: −log10 of the molar value.
Class Satisfied: pIC50 at least 7. Class Not satisfied: pIC50 below 7.

molecule | tested.on | label
CCOc1cccnc1O[C@@H]1CCCN(c2ncc(C(=O)NC(C)(C)CO)cn2)C1 | Diacylglycerol O-acyltransferase 2 (Homo sapiens) | Satisfied
CCOc1cccnc1Oc1cncc(-c2ncc(C(=O)NC3CCCOC3)cn2)c1 (racemic) | Diacylglycerol O-acyltransferase 2 (Homo sapiens) | Satisfied
CCOc1cccnc1Oc1cncc(-c2ncc(C(=O)NC(C)(C)CO)cn2)c1 | Diacylglycerol O-acyltransferase 2 (Homo sapiens) | Satisfied
CCOc1cccnc1Oc1cncc(-c2ncc(C(=O)NC3CCOCC3)cn2)c1 | Diacylglycerol O-acyltransferase 2 (Homo sapiens) | Not satisfied
CCOc1cccnc1Oc1cncc(-c2ncc(C(=O)NC3CC(=O)N(C)C3)cn2)c1 (racemic) | Diacylglycerol O-acyltransferase 2 (Homo sapiens) | Not satisfied

----------
protocol.description: Half life in Wistar Han rat at 5 mg/kg, po
Assay type: ADME, organism-based
measurement.context: in vivo

smiles.str | half-life
CCOc1cccnc1Oc1cncc(-c2ncc(C(=O)N[C@H]3CCOC3)cn2)c1 | 1 h

----------
protocol.description: Half life in Wistar Han rat at 1 mg/kg, iv
Assay type: ADME, organism-based
measurement.context: in vivo
reported.property: half-life (min)

molecule | numeric.value
CCOc1cccnc1Oc1cncc(-c2ncc(C(=O)N[C@H]3CCOC3)cn2)c1 [PF-06865571] | 18

----------
protocol.description: Half life in cynomolgus monkey at 1 mg/kg, iv
Assay type: ADME, organism-based, Macaca fascicularis
measurement.context: in vivo
reported.property: half-life (h)

smiles.str | numeric.value
CCOc1cccnc1Oc1cncc(-c2ncc(C(=O)N[C@H]3CCOC3)cn2)c1 | 1

----------
Reported values: IC50 for Cytochrome P450 2C19 (Homo sapiens, UniProt P33261), one per item.

molecule | qual | IC50 [µM]
CCOc1cccnc1Oc1cncc(-c2ncc(C(=O)NC(C)(C)CO)cn2)c1 | > | 30
CCOc1cccnc1Oc1cncc(-c2ncc(C(=O)N[C@H]3CCOC3)cn2)c1 [PF-06865571] | = | 57
